# Tested on: T lymphocyte
# protocolDescription: ConA induced T-lymphocyte proliferation ([3H]thymidine)
# Type: cell-based, mouse
# assayContext: 10^−7 M; control 125789
Listed here: items and their measured Lymphocyte Proliferation (cpm) T cell.
Write the value in cpm as a bare number.

CC(C)[C@]12O[C@H]1[C@@H]1O[C@@]13[C@@]1(C)CCC4=C(COC4=O)C1=C[C@@H]1O[C@@]13C2=O [LLDT-15, Δ^5,6-dehydrotriptonide]    63914
CC(C)C12OC1C1OC13C1(OC1C(O)C1(O)C4=C(CCC13C)C(=O)OC4)C2O (stereo not drawn) [LLDT-23]    104791
CC(C)[C@]12O[C@H]1[C@@H]1O[C@]13[C@]1(O[C@H]1[C@@H]1O[C@@]14C1=C(CC[C@]34C)C(=O)OC1)[C@H]2O [LLDT-21, (5R, 6S)-5,6-epoxy-14-epitriptolide]    73513
CC(C)[C@]12O[C@H]1[C@@H]1O[C@@]13[C@@]1(C)CCC4=C(COC4=O)[C@@]14O[C@H]4[C@@H]1O[C@@]13C2=O [LLDT-16, (5R, 6S)-5,6-epoxytriptonide]    75599
CC(C)C12OC1C1OC13C1(C)CCC4=C(COC4=O)C1=CC1OC13C2O (stereo not drawn) [LLDT-18, Δ^5,6-dehydrotriptolide]    53513

Then there is this molecule:
Entry CC(C)[C@]12O[C@H]1[C@@H]1O[C@@]13[C@@]1(C)CCC4=C(COC4=O)[C@]1(O)[C@@H](O)[C@@H]1O[C@@]13C2=O [LLDT-17, cis-(5R, 6S)-5,6-dihydroxytriptonide] , Lymphocyte Proliferation (cpm) T cell reported as 67561
